# SYSTEM_TESTED: K61Q PncC (Escherichia coli, UniProt P0A6G3, K61Q)
# Construct: made in house; host or cells: E. coli BL21(DE3)
# Sequence (P0A6G3 whole entry K61Q): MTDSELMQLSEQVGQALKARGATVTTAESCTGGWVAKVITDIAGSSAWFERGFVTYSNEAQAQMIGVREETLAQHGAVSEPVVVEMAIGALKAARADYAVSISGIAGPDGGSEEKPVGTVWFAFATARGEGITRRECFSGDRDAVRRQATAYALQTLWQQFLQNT
# Assay type: binding, E. coli
# STATED_CONDITIONS: nucleotide 0.375 µM
Catalogue of K61Q PncC fluorescence quenching (%) vs buffer values
Answer in %, number only, no unit symbol.

A selection of reference data follows.
COMPOUND	UNIT_SYMBOL	VALUE_REPORTED
NC(=O)c1ccc[n+]([C@@H]2O[C@H](CO)[C@@H](O)[C@H]2O)c1 [NR, nicotinamide riboside]	%	2.97
NC(=O)c1ccc[n+]([C@@H]2O[C@H](COP(=O)([O-])OP(=O)(O)OC[C@H]3O[C@@H](n4cnc5c(N)ncnc54)[C@H](O)[C@@H]3O)[C@@H](O)[C@H]2O)c1 [NAD, nicotinamide adenine dinucleotide]	%	1.39

# evaluate next
Challenge: Quick one: K61Q PncC fluorescence quenching (%) vs buffer for Nc1ncnc2c1ncn2[C@@H]1O[C@H](COP(=O)(O)OP(=O)([O-])OC[C@H]2O[C@@H]([n+]3cccc(C(=O)O)c3)[C@H](O)[C@@H]2O)[C@@H](O)[C@H]1O [NaAD, nicotinic acid adenine dinucleotide] ?
Response given: 1.02

###

# SYSTEM_TESTED: K61Q PncC (Escherichia coli, UniProt P0A6G3, K61Q)
# Construct: made in house; host or cells: E. coli BL21(DE3)
# Type: binding, E. coli
# STATED_CONDITIONS: nucleotide 0.375 µM
K61Q PncC fluorescence quenching (%) vs buffer strictly less than 1% = yes (1). Otherwise no (0).

# example entries with known answers
MOLECULE	SYSTEM_TESTED	CLASS_LABEL
NC(=O)c1cccnc1 [Nam, nicotinamide]	K61Q PncC (Escherichia coli, UniProt P0A6G3, K61Q)	yes (1)
O=C(O)c1cccnc1	K61Q PncC (Escherichia coli, UniProt P0A6G3, K61Q)	no (0)
O=C(O)c1ccc[n+]([C@@H]2O[C@H](COP(=O)([O-])O)[C@@H](O)[C@H]2O)c1 [NaMN, nicotinic acid mononucleotide]	K61Q PncC (Escherichia coli, UniProt P0A6G3, K61Q)	no (0)

Challenge: Just wondering, is K61Q PncC fluorescence quenching (%) vs buffer of NC(=O)c1ccc[n+]([C@@H]2O[C@H](COP(=O)([O-])O)[C@@H](O)[C@H]2O)c1 [NMN, nicotinamide mononucleotide] below 1%?
Response given: no (0)

Challenge: Just wondering, is K61Q PncC fluorescence quenching (%) vs buffer of NC(=O)c1ccc[n+]([C@@H]2O[C@H](COP(=O)(O)OP(=O)([O-])OC[C@H]3O[C@@H](n4cnc5c(N)ncnc54)[C@H](OP(=O)(O)O)[C@@H]3O)[C@@H](O)[C@H]2O)c1 below 1%?
Response given: yes (1)

###

# SYSTEM_TESTED: S29A PncC (Escherichia coli, UniProt P0A6G3, S29A)
# Construct: made in house; host or cells: E. coli BL21(DE3)
# Sequence (P0A6G3 whole entry S29A): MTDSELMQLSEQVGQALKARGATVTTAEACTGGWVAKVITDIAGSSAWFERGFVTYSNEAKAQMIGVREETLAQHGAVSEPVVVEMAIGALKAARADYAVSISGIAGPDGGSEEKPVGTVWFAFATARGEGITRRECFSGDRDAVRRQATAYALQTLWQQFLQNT
# Assay type: binding, E. coli
# STATED_CONDITIONS: nucleotide 0.75 µM
MEASURED_PROPERTY: S29A PncC fluorescence quenching (%) vs buffer

Challenge: State its S29A PncC fluorescence quenching (%) vs buffer on S29A PncC (Escherichia coli, UniProt P0A6G3, S29A): NC(=O)c1ccc[n+]([C@@H]2O[C@H](COP(=O)([O-])OP(=O)(O)OC[C@H]3O[C@@H](n4cnc5c(N)ncnc54)[C@H](O)[C@@H]3O)[C@@H](O)[C@H]2O)c1 [NAD, nicotinamide adenine dinucleotide]
Response given: 0.80%

Challenge: State its S29A PncC fluorescence quenching (%) vs buffer on S29A PncC (Escherichia coli, UniProt P0A6G3, S29A): O=C(O)c1cccnc1
Response given: 0%

Challenge: State its S29A PncC fluorescence quenching (%) vs buffer on S29A PncC (Escherichia coli, UniProt P0A6G3, S29A): NC(=O)c1ccc[n+]([C@@H]2O[C@H](COP(=O)(O)OP(=O)([O-])OC[C@H]3O[C@@H](n4cnc5c(N)ncnc54)[C@H](OP(=O)(O)O)[C@@H]3O)[C@@H](O)[C@H]2O)c1
Response given: 0.67%

Challenge: State its S29A PncC fluorescence quenching (%) vs buffer on S29A PncC (Escherichia coli, UniProt P0A6G3, S29A): O=C(O)c1ccc[n+]([C@@H]2O[C@H](COP(=O)([O-])O)[C@@H](O)[C@H]2O)c1 [NaMN, nicotinic acid mononucleotide]
Response given: 6.47%

Challenge: State its S29A PncC fluorescence quenching (%) vs buffer on S29A PncC (Escherichia coli, UniProt P0A6G3, S29A): NC(=O)c1cccnc1 [Nam, nicotinamide]
Response given: 0.48%
